System: 786-0 renal
Assay: NCI tumour cell line growth inhibition, 48 h
# TGI per entry
Lab book: enter the figure in µM, no units written.

>>> quantitative_readout("Oc1c(Cl)cc(Cl)cc1C(c1cc(Cl)cc(Cl)c1O)C(Cl)(Cl)Cl")
7.45
>>> quantitative_readout("CCOC(=O)c1c(C)n([O-])c2cc(Cl)c(Cl)cc2[n+]1=O")
84.5

Alright, here's another compound for you.
Can you share its TGI? I mean this compound: Cc1cn2c(/C=N/N=C(N)N)c(-c3ccccn3)nc2s1
17.9

###

# TGI per entry
System: SW-620 colon
Experiment: NCI tumour cell line growth inhibition, 48 h
Lab book: enter the figure in µM, no units written.

>>> quantitative_readout("O=C(/C=C/C12c3ccccc3C(c3ccccc31)C1C(=O)NC(=O)C12)c1ccc(F)cc1 (centres undefined)")
4.59

# query: TGI | item CC([C@H]1CCC2C3CCC4C[C@@H](N)CC[C@]4(C)C3CC[C@@]21C)N(C)C (some centres undefined) | system: SW-620 colon
7.73

###

Test system: OVCAR-8 ovarian
Assay: NCI tumour cell line growth inhibition, 48 h
MEASURED_QUANTITY: TGI

Completed entries (count: 4):
>>> result("C=C1C(OC(=O)/C=C/c2ccccc2)CC(OC(C)=O)C2(C)C1CC1CC(OC(C)=O)C(C)=C(C(OC(C)=O)C2OC(C)=O)C1(C)C (centres undefined)")
"> 100 µM"
>>> result("CC(C)Oc1cccc(N2C(=NCCc3c[nH]c4ccccc34)Nc3ccncc3S2(=O)=O)c1")
"> 100 µM"
>>> result("CC(=O)OCC1OC(O[C@@H]2C[C@H]3C(C)(C)[C@@H](OC(C)=O)CC[C@]3(C)[C@H]3CC[C@]45C[C@]4(CC[C@H]5[C@@H](C)C[C@@H](O)[C@H](O)C(C)(C)F)[C@@]32C)C(O)C(O)C1O (some centres undefined)")
"6.1 µM"
>>> result("Cc1cc(-c2ccccn2)cc(C)c1/C=C/c1cncc(-c2nn[nH]n2)c1")
"> 25 µM"

Can you share its TGI? I mean this molecule: CCCCCCCCCCCCCCCCOP(=O)(O)OCC(NC(C)=O)C(=O)O (centres undefined)
> 100 µM

Can you share its TGI? I mean this molecule: COc1ccc(C2=C(N)c3ncccc3C2=O)cc1
> 100 µM

Can you share its TGI? I mean this molecule: O=C1OC(=O)C2CCCC3CCCC1C32 (centres undefined)
> 100 µM

Can you share its TGI? I mean this molecule: O/N=C1/CC2(N3CCOCC3)C3CC/C(=N\O)C2CC1(Cc1ccccc1)C3 (centres undefined)
> 100 µM

Can you share its TGI? I mean this molecule: CN(C)c1nncc2n[nH]nc12
> 100 µM

###

Tested on: ACHN renal
Experiment: NCI tumour cell line growth inhibition, 48 h; in the data active means GI50 below about 0.43 µM; inactive means the rest
Where a SMILES comes first, the peptide text is derived from it. [ ]: non-standard residue; d: D form. The star is where a group is joined. dTle = CC(C)(C)[C@@H](N)C(=O)O; 4Abz = Nc1ccc(C(=O)O)cc1; NHOH = ON*
Log the outcome using a class from active, inactive

Examples from the recorded data:
>>> label("Fc1cccc(-n2ccc(-c3ccccc3)nc2=S)c1")
"inactive"
>>> label("[N-]=[N+]=NCCCn1c2c(c3ccc([N+](=O)[O-])cc3c1=O)C(=O)c1cc(F)ccc1-2")
"active"
>>> label("C[C@@H](NC(=O)[C@H](NC(=O)[C@@H]1CCCN1C(=O)CNC(=O)c1ccc(N)cc1)C(C)(C)C)C(=O)NO (H-[4Abz]GP[dTle][dA]-{NHOH})")
"inactive"

In this assay, the call recorded for CC1=C(C(=O)Nc2cc(Cl)c3[nH]ncc3c2)C(c2ccc(C(F)(F)F)cc2)CC(=O)N1 (stereo not drawn) was what?
inactive

In this assay, the call recorded for CC1(N)CCN(c2cnc(-c3cccc(Cl)c3Cl)c(N)n2)CC1 was what?
inactive

In this assay, the call recorded for CN(C)CCNc1c2ccccc2nc2oc3ccccc3c12 was what?
inactive

In this assay, the call recorded for CCOC(=O)C#Cc1c(C(=O)OCC)nnn1Cc1ccc([N+](=O)[O-])cc1 was what?
inactive

In this assay, the call recorded for Clc1ccccc1CNc1c2ccccc2nc2ccccc12 was what?
inactive

In this assay, the call recorded for O=C(Nc1cccc(-c2ccc(Cl)c(C(F)(F)F)c2)c1)C1CCN(Cc2cccc3cccnc23)CC1 was what?
inactive

In this assay, the call recorded for C/C(O)=C(\C#N)C(=O)Nc1ccc(C(F)(F)F)cc1 was what?
inactive

In this assay, the call recorded for Cc1cc(N2CCOCC2)nc(N(CCCNc2ccnc3cc(Cl)ccc23)Cc2ccco2)n1 was what?
inactive

In this assay, the call recorded for Oc1ccc(C2c3ccccc3Oc3ccccc32)c2cccnc12 was what?
inactive

In this assay, the call recorded for N#C/C(=C\c1ccc(Br)cc1)n1nnc2cc(Cl)c(Cl)cc21 was what?
inactive

###

System: SF-295 CNS
Assay: NCI tumour cell line growth inhibition, 48 h
# TGI per entry

Can you share its TGI? I mean this compound: O=C1/C(=C/c2ccc(Cl)cc2)CCC/C1=C\c1ccc(Cl)cc1
> 100 µM

Can you share its TGI? I mean this compound: CC(=O)O[C@@]12CO[C@@H]1C[C@@H](O)[C@@]1(C)C(=O)[C@H](O)C3=C(C)[C@@H](OC(=O)[C@H](O)[C@@H](NC(=O)c4ccccc4)c4ccccc4)C[C@@](O)([C@@H](OC(=O)c4ccccc4)C12)C3(C)C (stereo partly drawn)
8.52 µM

Can you share its TGI? I mean this compound: CCCCCCCCCC(=O)OCC1OC(n2cc(F)c(=O)[nH]c2=O)C(NC(=O)OCc2ccccc2)C(OC(=O)CCCCCCCCC)C1O (stereo not drawn)
> 100 µM

Can you share its TGI? I mean this compound: O=C1C2CCN(CC2)C1(CO)CO
> 100 µM

###

# TGI per entry
Test system: CAKI-1 renal
Assay: NCI tumour cell line growth inhibition, 48 h
Lab book: enter the figure in µM, no units written.

Completed entries (count: 3):
>>> quantitative_readout("Cc1cc2c(C(N)=O)c(N)n(-c3c(C)ccc(O)c3C)c2nc1C")
10.3
>>> quantitative_readout("O=C(Nc1cccc(Cl)c1)c1cccc(NC2=C(Cl)C(=O)N(Cc3ccccc3)C2=O)c1")
49.1
>>> quantitative_readout("CC(C)(C)OC(=O)NCCCC(=O)NC1(c2cc3ccccc3s2)CCCCC1")
93.1

Alright, here's another compound for you.
# query: TGI | item CC(CN(C)C)Oc1ccccc1NC1=C(Cl)C(=O)C(Nc2ccccc2OC(C)CN(C)C)=C(Cl)C1=O (stereo not given) | system: CAKI-1 renal
2.72

###

# GI50 per entry
Tested on: UACC-62 melanoma
Assay: NCI tumour cell line growth inhibition, 48 h

>>> result("CCCCCCCCCNC(=O)/C=C/c1ccc(O)c(O)c1")
"15.3 µM"
>>> result("O=C1/C(=C/c2ccc(Cl)cc2)CCC/C1=C\\c1ccc(Cl)cc1")
"4.39 µM"

Alright, here's another compound for you.
Can you share its GI50? I mean this compound: COC(=O)c1cc2c3ccccc3[nH]c2c2sccc12
22.3 µM

###

System: RXF 393 renal
Assay: NCI tumour cell line growth inhibition, 48 h; in the data active means GI50 below about 0.43 µM; inactive means the rest
Log the outcome using a class from active, inactive

Examples from the recorded data:
>>> label("CCN(CC)C(=S)SCN1C(=O)c2ccccc2S1(=O)=O")
"inactive"
>>> label("CCCCCCCCCNC(=O)/C=C/c1ccc(O)c(O)c1")
"inactive"
>>> label("COC(=O)C12OCC34C(CC5C(C)C6=CC(=O)OC6=CC5(C)C3C(O)C1O)OC(=O)C(O)C24 (stereo unspecified)")
"active"
>>> label("COc1cc(-c2csc(NC(=O)Nc3ccc(C(F)(F)F)cc3)n2)cc(OC)c1OC")
"inactive"
>>> label("Clc1ccccc1CNc1c2ccccc2nc2ccccc12")
"inactive"

In this assay, the call recorded for C=C1C(=O)O[C@H]2[C@H]1CC/C(COC(=O)C(C)c1ccc(CC(C)C)cc1)=C\CC[C@@]1(C)O[C@@H]21 (stereo partly specified) was what?
inactive

In this assay, the call recorded for O=C1C=CC(=O)N1c1cccc(N2C(=O)C=CC2=O)c1 was what?
inactive

In this assay, the call recorded for COC(=O)c1cc2c3ccccc3[nH]c2c2sccc12 was what?
inactive

In this assay, the call recorded for CN(CC(=O)Nc1nc2ccccc2[nH]1)S(=O)(=O)c1ccc(Cl)cc1 was what?
inactive

In this assay, the call recorded for Cc1cc(N2CCOCC2)nc(N(CCCNc2ccnc3cc(Cl)ccc23)Cc2ccco2)n1 was what?
inactive

In this assay, the call recorded for CC(=O)O[C@H](C[C@H](C(C)C)N(C)C(=O)[C@@H](NC(=O)[C@H]1CCCN1C)C(C)C)c1nc(C(=O)N[C@@H](Cc2ccccc2)C[C@H](C)C(=O)O)c(C)s1 was what?
active
